target: Human immunodeficiency virus type 1 integrase (Human immunodeficiency virus 1) (UniProt Q7ZJM1); assay: Inhibitory activity against HIV-1 integrase at 1 mM
Reported inhibition by item:

Worked cases, inhibition given:
Compound: N[C@H]1[C@@H](OP(=O)(O)O)O[C@H](CO)[C@H](O)[C@@H]1O
inhibition: < 50%
--
Compound: OC[C@@H](O)[C@@H](O[C@H]1O[C@H](CO)[C@@H](O)[C@H](O)[C@H]1O)[C@H](O)[C@@H](O)CO
inhibition: < 50%
--
Compound: OC[C@@H](O)[C@@H](O)[C@H](O)c1cnc([C@@H](O)[C@H](O)[C@H](O)CO)cn1
inhibition: < 50%
--
Compound: N=C(NCCCCCCNC(=N)NC(=N)Nc1ccc(Cl)cc1)NC(=N)Nc1ccc(Cl)cc1
inhibition: > 50%
--
Compound: CN[C@@H]1[C@H](OC2[C@@H](OC3[C@@H](N=C(N)N)[C@H](O)[C@@H](N=C(N)N)[C@H](O)[C@H]3O)O[C@@H](C)[C@]2(O)CO)O[C@@H](CO)[C@H](O)[C@H]1O (some centres undefined)
inhibition: < 50%
--
Compound: OC[C@H]1O[C@H](OC[C@H]2OC(O)[C@H](O)[C@@H](O)[C@@H]2O)[C@H](O)[C@@H](O)[C@@H]1O (some centres undefined)
inhibition: < 50%
--
Compound: OCC(CO)(CO)NCCCNC(CO)(CO)CO
inhibition: < 50%
--
Compound: O=P(O)(O)O[C@H]1O[C@H](CO)[C@@H](O)[C@H](O)[C@@H]1O
inhibition: < 50%
--
Compound: O=P(O)(O)O[C@@H]1O[C@H](CO)[C@@H](O)[C@H](O)[C@H]1O
inhibition: < 50%
--
Compound: CC(=O)NC1=C(O)C[C@@](O)(C(=O)O)O[C@H]1[C@@H](O)[C@H](O)CO
inhibition: < 50%

Exercise: Fill in the blank: the reported inhibition of COC(=O)C1(O)C[C@H](O)[C@@H](NC(C)=O)[C@H]([C@H](O)[C@H](O)CO)O1 (some centres undefined) is ____.
Solution: < 50%

Exercise: Fill in the blank: the reported inhibition of N=C(N)NCCCCNCCCNC(=N)N is ____.
Solution: < 50%

Exercise: Fill in the blank: the reported inhibition of O=C(NC(CO)(CO)CO)C(=O)NC(CO)(CO)CO is ____.
Solution: < 50%

Exercise: Fill in the blank: the reported inhibition of Nc1nc(=O)c2c([nH]1)NCC(CNc1ccc(C(=O)N[C@@H](CCC(=O)O)C(=O)O)cc1)=N2 is ____.
Solution: > 50%

----------
Here we list compounds with their recorded IC50 when tested on Human immunodeficiency virus type 1 integrase (Human immunodeficiency virus 1).
Answer format: numeric, nM implied, no suffix.

Worked cases, IC50 given:
Compound: O=C(/C=C/c1ccc(O)c(O)c1)O[C@H]1[C@H](O)C[C@](O)(C(=O)O)C[C@H]1OC(=O)/C=C/c1ccc(O)c(O)c1 (stereo in doubt; form 2)
IC50, nM: 250
--
Compound: C[C@@H]1O[C@@H](OC2C[C@](O)(C(=O)CO)Cc3c(O)c4c(c(O)c32)C(=O)c2c(O)cccc2C4=O)C[C@H](N)[C@@H]1O (stereo not given in full)
IC50, nM: 2300

Exercise: Fill in the blank: the reported IC50 of O=C1c2c(O)ccc(O)c2C(=O)c2c(NCCNCCO)ccc(NCCNCCO)c21 [MITOXANTRONE] is ____.
Solution: 3800

Exercise: Fill in the blank: the reported IC50 of Cc1cccc2c1C(O)=C1C(=O)C3C(O)=C(C(=O)NNC4(C(=O)O)CCCC4)C(=O)[C@@H](N(C)C)[C@@H]3C[C@@H]1C2(C)O (stereo not given in full) is ____.
Solution: 1200

Exercise: Fill in the blank: the reported IC50 of O=C(/C=C\c1ccc(O)c(O)c1)OC1C(O)CC(OC(=O)/C=C\c2ccc(O)c(O)c2)(C(=O)O)CC1O (stereo not given) is ____.
Solution: 9500
